Give measured IC50 for each item. Keep answers brief.
test system: Plasmodium falciparum; assay: Antiplasmodial activity against Plasmodium falciparum NF54 intraerythrocytic forms measured after 72 hrs by 3H-hypoxanthine based liquid scintillation counting analysis; type: functional, organism-based
The response must be a number in nM with no trailing unit.

Query the reported IC50 for Plasmodium falciparum; item: `CC1=C2C[C@H]3C(C)(C)OC4=C(C(C)C)C(=O)[C@@]5(C=C1)CC[C@H]1C(C)(C)CCC[C@]16C[C@]25[C@@]43O6` 30

Query the reported IC50 for Plasmodium falciparum; item: CC(C)C1=C2OC(C)(C)[C@@H]3CC4[C@@H](C)[C@H](O)C[C@@]5(CC[C@H]6C(C)(C)CCC[C@]67C[C@]45[C@@]23O7)C1=O (stereo partly drawn) 5100

Query the reported IC50 for Plasmodium falciparum; item: `CC1=CC[C@]23CC[C@H]4C(C)(C)CCC[C@]45C[C@]24[C@@]1(O)C[C@H]1C(C)(C)OC(=C(C(C)C)C3=O)[C@@]14O5` 80

----------
tested on: Plasmodium falciparum; experiment: Antiplasmodial activity against Plasmodium falciparum NF54 intraerythrocytic forms measured after 72 hrs by 3H-hypoxanthine based liquid scintillation counting analysis; format: functional, organism-based
MEASURED QUANTITY: pIC50
pIC50 field: float, defined as -log10 of concentration (mol/L).

Query the reported pIC50 for Plasmodium falciparum; item: CC(C)C1=C2OC(C)(C)[C@@H]3CC4[C@H](C)[C@@H](O)C[C@@]5(CC[C@H]6C(C)(C)CCC[C@]67C[C@]45[C@@]23O7)C1=O (some centres undefined) 5.59

Query the reported pIC50 for Plasmodium falciparum; item: `CC1=CC[C@]23CC[C@H]4C(C)(C)CCC[C@]45C[C@]24C1=C[C@H]1C(C)(C)OC(=C(C(C)C)C3=O)[C@@]14O5` 6.05

Query the reported pIC50 for Plasmodium falciparum; item: CC(C)C1=C2OC(C)(C)[C@@H]3CC4[C@@H](C)[C@H](B(F)F)C[C@@]5(CC[C@H]6C(C)(C)CCC[C@]67C[C@]45[C@@]23O7)C1=O (some centres undefined) 6.10

Query the reported pIC50 for Plasmodium falciparum; item: CC(C)C1=C2OC(C)(C)[C@@H]3CC4[C@H](C)[C@@H](OC(=O)CCC(=O)O)C[C@@]5(CC[C@H]6C(C)(C)CCC[C@]67C[C@]45[C@@]23O7)C1=O (some centres undefined) 5.25

----------
assay: Cytotoxicity against rat myoblast L6 cells measured after 72 hrs by inverted microscopy; format: toxicity, cell-based
Give measured log10 IC50 at 72 h for each item. Keep answers brief.
Recorded IC50 at 72 h (log10, µM)

// query log10 IC50 at 72 h value for entry `CC1=C2C[C@H]3C(C)(C)OC4=C(C(C)C)C(=O)[C@@]5(C=C1)CC[C@H]1C(C)(C)CCC[C@]16C[C@]25[C@@]43O6` 1.42

// query log10 IC50 at 72 h value for entry CC(C)C1=C2OC(C)(C)[C@@H]3CC4[C@@H](C)[C@H](O)C[C@@]5(CC[C@H]6C(C)(C)CCC[C@]67C[C@]45[C@@]23O7)C1=O (some centres not stated) 1.56

// query log10 IC50 at 72 h value for entry CC(C)C1=C2OC(C)(C)[C@@H]3CC4[C@H](C)[C@@H](OC(=O)CCC(=O)O)C[C@@]5(CC[C@H]6C(C)(C)CCC[C@]67C[C@]45[C@@]23O7)C1=O (some centres not stated) 0.99

// query log10 IC50 at 72 h value for entry CC(C)C1=C2OC(C)(C)[C@@H]3CC4[C@@H](C)[C@H](B(F)F)C[C@@]5(CC[C@H]6C(C)(C)CCC[C@]67C[C@]45[C@@]23O7)C1=O (some centres not stated) 1.54

// query log10 IC50 at 72 h value for entry `CC1=CC[C@]23CC[C@H]4C(C)(C)CCC[C@]45C[C@]24C1=C[C@H]1C(C)(C)OC(=C(C(C)C)C3=O)[C@@]14O5` 1.38

// query log10 IC50 at 72 h value for entry CC(C)C1=C2OC(C)(C)[C@@H]3CC4[C@H](C)[C@@H](O)C[C@@]5(CC[C@H]6C(C)(C)CCC[C@]67C[C@]45[C@@]23O7)C1=O (some centres not stated) 2.13

// query log10 IC50 at 72 h value for entry `CC1=CC[C@]23CC[C@H]4C(C)(C)CCC[C@]45C[C@]24[C@@]1(O)C[C@H]1C(C)(C)OC(=C(C(C)C)C3=O)[C@@]14O5` 0.84

Where do these numbers come from? They come from ChEMBL document CHEMBL6177970.
